# Test description: Plasma pharmacokinetics, single dose and steady state
# Format: in vivo, human
# Condition context: human, plasma, oral, 150 mg, plasma, 150 mg QD, Day 1 (n=4); read-out: Tmax, median (range)
Readout type: Tmax (h)

[[record]]
smiles_record = "CC(=O)c1c(C)c2cnc(Nc3ccc(N4CCNCC4)cn3)nc2n(C2CCCC2)c1=O"
test_result = 6


###

# Test description: Plasma pharmacokinetics, single dose and steady state
# Type: in vivo, human
# Condition context: human, plasma, oral, 150 mg, plasma, 150 mg QD, Day 8 (n=3); read-out: Tmax, median (range)
Readout type: Tmax (h)

[[record]]
smiles_record = "CC(=O)c1c(C)c2cnc(Nc3ccc(N4CCNCC4)cn3)nc2n(C2CCCC2)c1=O"
readout_type = "Tmax"
test_result = 7


###

# Test description: Plasma pharmacokinetics, single dose and steady state
# Format: in vivo, human
# Condition context: human, plasma, oral, 100 mg, plasma, 100 mg QD, Day 8 (n=3); read-out: Tmax, median (range)
Readout type: Tmax (h)

[[record]]
smiles_record = "CC(=O)c1c(C)c2cnc(Nc3ccc(N4CCNCC4)cn3)nc2n(C2CCCC2)c1=O"
test_result = 4


###

# Test description: Plasma pharmacokinetics, single dose and steady state
# Assay type: in vivo, human
# Condition context: human, plasma, oral, 150 mg, plasma, 150 mg QD, Day 1 (n=2 per footnote a); read-out: AUC(0–10), mean (%CV)
Readout type: AUC(0-t) (ng·h/mL)

[[record]]
smiles_record = "CC(=O)c1c(C)c2cnc(Nc3ccc(N4CCNCC4)cn3)nc2n(C2CCCC2)c1=O"
unit_string = "ng·h/mL"
test_result = 622


###

# Test description: Plasma pharmacokinetics, single dose and steady state
# Format: in vivo, human
# Condition context: human, plasma, oral, 100 mg, plasma, 100 mg QD, Day 8 (n=3); read-out: Cmax, mean (%CV)
# Method: Samples for measurement of PK parameters were collected from all patients pre-dose and at intervals up to 10 h post-dose following a single administration (cycle one, day 1) and after repeated dosing (cycle 1, day 8). […] Additional PK parameters assessed were the time-to-first occurrence of Cmax (Tmax), the apparent volume of distribution during the terminal phase (Vz/F), the terminal elimination half-life (t1/2) and the drug accumulation ratio (Rac). […]
Readout type: Cmax (µg/mL)

[[record]]
smiles_record = "CC(=O)c1c(C)c2cnc(Nc3ccc(N4CCNCC4)cn3)nc2n(C2CCCC2)c1=O"
test_result = 0.058


###

# Test description: Plasma pharmacokinetics, single dose and steady state
# Assay type: in vivo, human
# Condition context: human, in vivo, 225 mg, Tmax, median (range)
Readout type: Tmax (h)

[[record]]
smiles_record = "CC(=O)c1c(C)c2cnc(Nc3ccc(N4CCNCC4)cn3)nc2n(C2CCCC2)c1=O"
readout_type = "Tmax"
test_result = 4


###

# Test description: Plasma pharmacokinetics, single dose and steady state
# Type: in vivo, human
# Condition context: human, plasma, oral, 200 mg, plasma, 200 mg QD, Day 8 (n=8); read-out: Tmax, median (range)
Readout type: Tmax (h)

[[record]]
smiles_record = "CC(=O)c1c(C)c2cnc(Nc3ccc(N4CCNCC4)cn3)nc2n(C2CCCC2)c1=O"
readout_type = "Tmax"
test_result = 4


###

# Test description: Plasma pharmacokinetics, single dose and steady state
# Type: in vivo, human
# Condition context: human, plasma, oral; steady state, 200-mg QD cohort; read-out: Vz/F (apparent volume of distribution), mean
Readout type: Vd/F (L)

[[record]]
smiles_record = "CC(=O)c1c(C)c2cnc(Nc3ccc(N4CCNCC4)cn3)nc2n(C2CCCC2)c1=O"
test_result = 3240

